test: Human HepG2 cell viability assay in 384 well format; format: toxicity, cell-based; parameters: dose 125 nL, time 70.5 hour; concentration not given beside the values; conditions: HepG2 cells, read-out: Inhibition
The entries below come with measured cytotoxicity at 70.5 h values attached.
Record the result as number plus unit.

Solved cases (4 shown):
O=C(NCc1cccnc1-n1cncn1)c1ccc2c(c1)CCO2
-1.03%
CC(C(=O)Nc1ccnn1C(C)C)N1CCCN(c2nccs2)CC1 (stereo not given)
-3.68%
Cc1ccc(C(=O)N2C[C@@H](OCC3CCOCC3)[C@H]3OCCC[C@H]32)o1
-27.2%
CC(C)(C)[S+]([O-])CCNC(=O)c1cccc2ncccc12 (stereo not given)
-8.58%

Exam item: Could you share which cytotoxicity at 70.5 h value was measured for COc1ccc(-c2nnc(SC(C)C(=O)NC3CC3)[nH]2)c(OC)c1 (stereo not given) ?
Marked response: 30.9%

* * *

experiment: Human HepG2 cell viability assay in 384 well format; type: toxicity, cell-based; parameters: dose 125 nL, time 70.5 hour; concentration not given beside the values; conditions: HepG2 cells, read-out: Inhibition
metric-name: cytotoxicity at 70.5 h (%)
Lab book: enter the figure in %, no units written.

CC1C(=O)Nc2cccnc2N1S(=O)(=O)c1cc(F)cc(F)c1 (stereo unspecified)
16

The record that follows has no cytotoxicity at 70.5 h shown yet.
Exam item: Could you share which cytotoxicity at 70.5 h value was measured for Cc1cccc(C(=O)NCCNS(=O)(=O)c2cccs2)c1C ?
Marked response: -5.88

* * *

experiment: Human HepG2 cell viability assay in 384 well format; format: toxicity, cell-based; parameters: dose 125 nL, time 70.5 hour; concentration not given beside the values; conditions: HepG2 cells, read-out: Inhibition
metric-name: cytotoxicity at 70.5 h (%)
Lab book: enter the figure in %, no units written.

CCC(C)(C)NC(=O)COC(=O)c1cc(C)ccc1NC(=O)N(C)C
-7.98
CC(C)NC(=O)NC[C@H]1OC[C@@H](NCc2cccs2)[C@@H]1O
9.03

The record that follows has no cytotoxicity at 70.5 h shown yet.
Exam item: Could you share which cytotoxicity at 70.5 h value was measured for Cn1nnc(NCc2ccccc2OCc2ccc(Cl)cc2)n1 ?
Marked response: 29.2

* * *

test: Human HepG2 cell viability assay in 384 well format; type: toxicity, cell-based; set-up: dose 125 nL, time 70.5 hour; concentration not given beside the values; settings: HepG2 cells, read-out: Inhibition
The entries below come with measured cytotoxicity at 70.5 h values attached.
Record the result as number plus unit.

Solved cases (5 shown):
Cc1ccc2c(c1)C(=O)NCC1(CCN(C(=O)c3ccccn3)CC1)O2
-7.17%
O=C(CC1CCN(c2cccnn2)CC1)NCCO
-6.47%
CC(C)N(C)Cc1nnc2n1CCN(Cc1ccncc1)CC2
-3.24%
CC(C)CN1CC(C(=O)N(C)CCc2cn[nH]c2)CC1=O (configuration not stated)
-6.49%
CCC(CO)N(Cc1ccccn1)C(=O)c1ncccc1C (configuration not stated)
15.2%

Exam item: Could you share which cytotoxicity at 70.5 h value was measured for c1ccc(OCc2nc(CNCCn3cccn3)cs2)cc1 ?
Marked response: 27%

Exam item: Could you share which cytotoxicity at 70.5 h value was measured for CCCN(C)CCC(=O)N1CCCC1Cn1cccn1 (configuration not stated) ?
Marked response: 15.3%

Exam item: Could you share which cytotoxicity at 70.5 h value was measured for Cc1nccc([C@H]2C[C@@H]3CCN(Cc4ccco4)C[C@H]3O2)n1 ?
Marked response: -10.9%

Exam item: Could you share which cytotoxicity at 70.5 h value was measured for CC(=O)N1CCN(C(=O)c2sc(-c3ccccc3F)nc2C)CC1 ?
Marked response: 16.5%

* * *

assay: Human HepG2 cell viability assay in 384 well format; type: toxicity, cell-based; design: dose 125 nL, time 70.5 hour; concentration not given beside the values; details: HepG2 cells, read-out: Inhibition
metric-name: cytotoxicity at 70.5 h (%)
Lab book: enter the figure in %, no units written.

Cc1cc(NC(=O)CNC(C)(C)c2nc(C)c(C)s2)no1
-7.18
CC(=O)N1CCOC(c2cc(N3CC(O)C3)nc(C)n2)C1 (configuration not stated)
-16.5
CCOc1cc(-c2cc(=O)n3c(n2)CCCCC3)ccc1O
-20.5
COc1ccc(C2=C(C)C(N3CCc4ccccc43)=NS2(=O)=O)cc1
-12.7
CC(NC(=O)NCc1ccccc1F)(C(=O)O)c1ccco1 (configuration not stated)
-2.87

Exam item: Could you share which cytotoxicity at 70.5 h value was measured for CC(C)=CCC/C(C)=C\CNCc1ccco1 ?
Marked response: 2.6

Exam item: Could you share which cytotoxicity at 70.5 h value was measured for CN(C)CCN(C)C1CCCN(C(=O)c2ccc(Cn3ccnc3)o2)C1 (configuration not stated) ?
Marked response: -9.94

Exam item: Could you share which cytotoxicity at 70.5 h value was measured for Cc1cccc2cc(CO)c(N3Cc4cnc(C(C)(C)C)nc4C3)nc12 ?
Marked response: 7.83

Exam item: Could you share which cytotoxicity at 70.5 h value was measured for Cc1nn(C)c2cnn(CCCNS(=O)(=O)Cc3ccccc3)c12 ?
Marked response: 10.4

Exam item: Could you share which cytotoxicity at 70.5 h value was measured for CCNc1cc2c(nn1)CCN(C(=O)c1cccnc1N(C)C)C2 ?
Marked response: -1.46

Exam item: Could you share which cytotoxicity at 70.5 h value was measured for Cc1ccc(C(=O)N2CCC3(CC2)CC(N2CCCC2)C3)cc1 ?
Marked response: -10.8

Exam item: Could you share which cytotoxicity at 70.5 h value was measured for Cc1ccc(-c2cn[nH]c2C2CCCN(c3ccnc(C)n3)C2)cc1 (configuration not stated) ?
Marked response: -1.31

Exam item: Could you share which cytotoxicity at 70.5 h value was measured for CN1CCc2nc(C3CCCN(S(=O)(=O)N4CCCC4)C3)ncc2C1 (configuration not stated) ?
Marked response: 0.156

Exam item: Could you share which cytotoxicity at 70.5 h value was measured for COc1ncc(C2(O)CCN(Cc3cc(F)cc(F)c3)CC2)c(OC)n1 ?
Marked response: -2.18

Exam item: Could you share which cytotoxicity at 70.5 h value was measured for O=C(c1ccc(=O)[nH]c1)N1CCCC2(C=Cc3ccccc3O2)CC1 (configuration not stated) ?
Marked response: -3.22

Exam item: Could you share which cytotoxicity at 70.5 h value was measured for Cc1[nH]c2ccc(CNc3cc(C#N)ccn3)cc2c1C ?
Marked response: -4.75

Exam item: Could you share which cytotoxicity at 70.5 h value was measured for CN(C)C(=O)CNC(CC(F)(F)F)c1ccc(Cl)cc1 (configuration not stated) ?
Marked response: 0.0833

Exam item: Could you share which cytotoxicity at 70.5 h value was measured for CN(Cc1cc2c(cc1OC(F)F)OCO2)Cc1nccn1C ?
Marked response: -3.97

Exam item: Could you share which cytotoxicity at 70.5 h value was measured for Cc1ccc(CN2CC[C@H]3[C@H]2CCN3S(=O)(=O)C2CC2)s1 ?
Marked response: -5.12

Exam item: Could you share which cytotoxicity at 70.5 h value was measured for CCCc1nc(C)c(CNc2nc(C)nc3oc(C)nc23)s1 ?
Marked response: -8.14

Exam item: Could you share which cytotoxicity at 70.5 h value was measured for NC(=O)c1cnc(-c2ccccc2)nc1CCNC(=O)CN1CCCC1 ?
Marked response: 9.13

Exam item: Could you share which cytotoxicity at 70.5 h value was measured for CCCc1nccn1-c1cccc(C(C)O)c1 (configuration not stated) ?
Marked response: -2.3

Exam item: Could you share which cytotoxicity at 70.5 h value was measured for N#CC(NC(=O)CS(=O)(=O)C1CCCC1)c1ccc(F)cc1F (configuration not stated) ?
Marked response: -10.4

* * *

assay: Human HepG2 cell viability assay in 384 well format; assay type: toxicity, cell-based; parameters: dose 125 nL, time 70.5 hour; concentration not given beside the values; conditions: HepG2 cells, read-out: Inhibition
metric-name: cytotoxicity at 70.5 h (%)
Lab book: enter the figure in %, no units written.

Cc1ccc(-c2nc(CN3CCN(CCO)CC3)co2)cc1
-9.54
CSc1ccc(NC(=O)Nc2ccc3c(c2)N(S(C)(=O)=O)CC3)cc1
68.5
Cc1c(C(C)N)cnn1-c1ccccn1 (stereo unspecified)
-8.01
CCCc1n[nH]c(C2CN(CCc3cccs3)CCO2)n1 (stereo unspecified)
-3.81
O=S(=O)(NCc1ccccc1)NCc1nc(-c2ccncc2)n[nH]1
-5.68

Exam item: Could you share which cytotoxicity at 70.5 h value was measured for Cc1oc(-c2ccco2)nc1CC(=O)N1CCN(C2CCC2)CC1 ?
Marked response: -1.12

Exam item: Could you share which cytotoxicity at 70.5 h value was measured for O=C(Cc1cccc(F)c1F)NS(=O)(=O)c1ccc(Cl)cn1 ?
Marked response: -6.06

Exam item: Could you share which cytotoxicity at 70.5 h value was measured for N#Cc1ccc(N2CCCN(CC(N)=O)CC2)cc1 ?
Marked response: -9.42

Exam item: Could you share which cytotoxicity at 70.5 h value was measured for CN(C)C(C(=O)NCCn1cccc1)c1cccc(F)c1 (stereo unspecified) ?
Marked response: -4.48

Exam item: Could you share which cytotoxicity at 70.5 h value was measured for CCOc1cc(C(=O)NS(=O)(=O)c2cccc(C#N)c2)ccc1OC ?
Marked response: -10

Exam item: Could you share which cytotoxicity at 70.5 h value was measured for Cc1nc(O)cc(C2CCCN(C(=O)COCc3ccccc3)C2)n1 (stereo unspecified) ?
Marked response: 1.06

All figures here come from ChEMBL document CHEMBL3507680.
